Target: T1, EH domain of human γ-synergin, longest construct (residues 279–388) (human, UniProt Q9UMZ2 279-388)
T1 chain: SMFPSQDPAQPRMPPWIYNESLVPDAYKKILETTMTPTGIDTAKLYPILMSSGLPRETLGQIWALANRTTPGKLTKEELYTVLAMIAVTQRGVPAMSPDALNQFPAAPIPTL
Assay: ITC
Exercise: for every item that follows, state its recorded Kd.
Numbers only, in µM.

SCAMP1″, NPF repeat rich N-terminal fragment of secretory carrier membrane protein 1 (residues 1–52) (domain or fragment, human (hORFeome collection), two additional residues (Serine-Methionine) left by the vector pNIC28-Bsa4 after TEV cleavage (same cloning procedure as for EHγ); secretory carrier membrane protein 1 (SCAMP1), residues 1-52, with three NPF repeats; gene from the hORFeome collection; also called SCAMP 1–52 fragment; NPF-repeats from the N-terminal domain of SCAMP1; source: E. coli BL21(DE3), purified (Ni-IMAC, TEV cleavage, …)) SMMSDFDSNPFADPDLNNPFKDPSVTQVTRNVPPGLDEYNPFSDSRTPPPGGVK :: 9.9

Kindly review the next binder as well.
# lookup: Kd of SCAMP1 (protein, N-terminal cytosolic SCAMP1 construct, residues 1-130 (NPF repeats plus coiled coil, no TM helices); Ser-Met left at the N-terminus after TEV cleavage is omitted; human inferred from the hORFeome source) MSDFDSNPFADPDLNNPFKDPSVTQVTRNVPPGLDEYNPFSDSRTPPPGGVKMPNVPNTQPAIMKPTEEHPAYTQIAKEHALAQAELLKRQEELERKAAELDRREREMQNLSQHGRKNNWPPLPSNFPVG
9
